Biological target: normal CSF Aβ42 (Homo sapiens)
Construct: reduced the detection of normal CSF Aβ42 to the background levels; from tissue; host or cells: pooled normal cerebrospinal fluid
Sequence (P05067 672-713 limits assumed): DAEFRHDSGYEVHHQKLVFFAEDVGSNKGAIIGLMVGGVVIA
Experiment: NMPA with detergent washing: background from unspiked CSF, Abeta42
Assay type: binding
Conditions: CSF; PSR1 beads treated with detergent post capture
Mark each entry label 1 if its Abeta 42 RLU, 0 ng/mL Abeta 42 globulomer, Average sits below 90 RLU, and label 0 for all others.

molecule	class.name
CCCCCCCCCCCCCCCC(=O)NCCC[N+](C)(C)CCCS(=O)(=O)[O-] [ASB-16]	label 0

Inquiry: Please state whether Abeta 42 RLU, 0 ng/mL Abeta 42 globulomer, Average is below 90 RLU for CCCCCCCC[N+](C)(C)CCCS(=O)(=O)[O-] [ZW3-08]
Reply text: label 0

Inquiry: Record: CCCCCCCCc1ccc(C(=O)NCCC[N+](C)(C)CCCS(=O)(=O)[O-])cc1 [ASB-C8phn]
Reply text: label 0

Inquiry: Record: CCCCCCCCCCCC[N+](C)(C)CC(=O)[O-] [Empigen, N,N-Dimethyl-N-dodecylglycine betaine]
Reply text: label 1
